Biological target: hCaSR (Calcium sensing receptor) in stably transfected HEK293 cells (Homo sapiens, UniProt P41180)
Sequence (P41180 20-1078): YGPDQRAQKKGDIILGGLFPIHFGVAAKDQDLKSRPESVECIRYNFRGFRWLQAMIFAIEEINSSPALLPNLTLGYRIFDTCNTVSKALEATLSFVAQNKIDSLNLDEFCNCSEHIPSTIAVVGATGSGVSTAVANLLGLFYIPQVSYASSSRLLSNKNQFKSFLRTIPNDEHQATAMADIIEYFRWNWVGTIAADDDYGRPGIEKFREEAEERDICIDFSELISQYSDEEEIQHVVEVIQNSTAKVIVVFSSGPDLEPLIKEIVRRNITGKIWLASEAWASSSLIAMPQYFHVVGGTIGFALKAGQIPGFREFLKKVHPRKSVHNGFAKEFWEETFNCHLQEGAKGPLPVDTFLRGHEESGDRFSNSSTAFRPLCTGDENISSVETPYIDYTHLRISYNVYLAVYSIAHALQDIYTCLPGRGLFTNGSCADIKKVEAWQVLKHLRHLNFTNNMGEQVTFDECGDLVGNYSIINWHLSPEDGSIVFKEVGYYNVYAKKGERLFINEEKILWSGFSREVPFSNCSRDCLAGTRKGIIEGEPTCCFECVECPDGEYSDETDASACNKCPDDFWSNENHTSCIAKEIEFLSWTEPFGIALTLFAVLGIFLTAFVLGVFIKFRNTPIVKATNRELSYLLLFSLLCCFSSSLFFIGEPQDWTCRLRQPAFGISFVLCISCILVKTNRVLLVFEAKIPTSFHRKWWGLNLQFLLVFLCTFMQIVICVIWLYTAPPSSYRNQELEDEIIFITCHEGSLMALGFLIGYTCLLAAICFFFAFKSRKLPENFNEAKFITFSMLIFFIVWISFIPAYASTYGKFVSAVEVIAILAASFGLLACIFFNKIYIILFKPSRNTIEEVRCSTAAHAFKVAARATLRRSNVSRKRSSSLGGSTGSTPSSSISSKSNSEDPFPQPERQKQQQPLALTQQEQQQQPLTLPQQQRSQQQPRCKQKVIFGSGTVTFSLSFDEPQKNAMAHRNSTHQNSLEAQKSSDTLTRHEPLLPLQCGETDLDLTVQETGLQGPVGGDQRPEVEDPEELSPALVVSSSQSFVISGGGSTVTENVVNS
Experiment: In-vitro assay of calcimimetics through modulation of calcium sensing receptor (CaSR): increase in intracellular calcium, FLIPR
Conditions: HEK293 cells expressing hCaSR; intracellular calcium (Fluo4NW, FLIPR); 0.3 mM CaCl2; 8-point assay; read-out: EC50 in range
pEC50: −log10 of the molar value. Where a name gives a salt, the structure may show the parent alone.
Reported pEC50 by item:

Examples from the recorded data:
1. COc1cccc([C@@H](C)NCC2CN(c3ccc(OC)c(F)c3)C(=O)CO2)c1 (stereo partly shown); 7.30 to 7.70
2. C[C@@H](NCC1CN(c2ccccc2)CCO1)c1cccc2ccccc12 (single isomer, unassigned) [26a]; > 7.70
3. COc1cccc(N2CCOCC2CN[C@H](C)c2cccc3ccccc23)c1 (single isomer, unassigned) [5b]; > 7.70

query: Recorded pEC50 for COc1cccc([C@@H](C)NCC2COCCN2c2ccc(C)cc2)c1 (stereo partly shown) , please?
result: 6.70 to 7.30

query: Recorded pEC50 for COc1cccc(N2CCOC(CN[C@H](C)c3cccc4ccccc34)C2)c1 (single isomer, unassigned) [25a] , please?
result: > 7.70

query: Recorded pEC50 for COc1cccc(N2CCOCC2CN[C@H](C)c2cccc3ccccc23)c1 (single isomer, unassigned) [5a] , please?
result: 6.70 to 7.30

query: Recorded pEC50 for C[C@@H](NCC1CN(c2cccc(F)c2)CCO1)c1cccc2ccccc12 (stereo partly shown) [Example-3, hydrochloride] , please?
result: 7.30 to 7.70

query: Recorded pEC50 for Cc1ccc(N2CCOCC2CN[C@H](C)c2cccc3ccccc23)cc1 (single isomer, unassigned) , please?
result: 7.30 to 7.70

query: Recorded pEC50 for Cc1ccc(N2CCOC(CCN[C@H](C)c3cccc4ccccc34)C2)cc1CCC(=O)O (single isomer, unassigned) [Example 108a, hydrochloride] , please?
result: 7.30 to 7.70

query: Recorded pEC50 for C[C@@H](NCC1COCCN1c1ccc(F)cc1)c1cccc2ccccc12 (stereo partly shown) , please?
result: 7.30 to 7.70

query: Recorded pEC50 for COc1cc([C@@H](C)NCC2CN(Cc3ccc(F)cc3)C(=O)CO2)ccc1F (single isomer, unassigned) [Example 101a, hydrochloride] , please?
result: 7.30 to 7.70

query: Recorded pEC50 for C[C@@H](NCC1CN(C2CCCC2)C(=O)CO1)c1cccc2ccccc12 (stereo partly shown) [Example 76, hydrochloride] , please?
result: > 7.70

query: Recorded pEC50 for C[C@@H](NCC1COCCN1c1ccccc1)c1cccc2ccccc12 (single isomer, unassigned) [Example-1a, hydrochloride] , please?
result: > 7.70

query: Recorded pEC50 for C[C@@H](NCCC1CN(c2cccc(OCC(=O)O)c2)CCO1)c1cccc2ccccc12 (single isomer, unassigned) [Example 113a, hydrochloride] , please?
result: 6.70 to 7.30

query: Recorded pEC50 for C[C@@H](NCC1CN(Cc2cccc(F)c2F)C(=O)CO1)c1cccc2ccccc12 (stereo partly shown) [Example 81, hydrochloride] , please?
result: > 7.70

query: Recorded pEC50 for C[C@@H](NCC1CN(c2ccc(F)c(F)c2)C(=O)CO1)c1cccc2ccccc12 (single isomer, unassigned) [62a, hydrochloride] , please?
result: > 7.70

query: Recorded pEC50 for C[C@@H](NCC1CN(c2cc(C(=O)O)cc(C(F)(F)F)c2)CCO1)c1cccc2ccccc12 (single isomer, unassigned) [Example 150a, hydrochloride] , please?
result: > 7.70
